Target: Cytochrome P450 2D6 (Homo sapiens) (UniProt P10635)
Sequence (P10635 whole entry, looked up): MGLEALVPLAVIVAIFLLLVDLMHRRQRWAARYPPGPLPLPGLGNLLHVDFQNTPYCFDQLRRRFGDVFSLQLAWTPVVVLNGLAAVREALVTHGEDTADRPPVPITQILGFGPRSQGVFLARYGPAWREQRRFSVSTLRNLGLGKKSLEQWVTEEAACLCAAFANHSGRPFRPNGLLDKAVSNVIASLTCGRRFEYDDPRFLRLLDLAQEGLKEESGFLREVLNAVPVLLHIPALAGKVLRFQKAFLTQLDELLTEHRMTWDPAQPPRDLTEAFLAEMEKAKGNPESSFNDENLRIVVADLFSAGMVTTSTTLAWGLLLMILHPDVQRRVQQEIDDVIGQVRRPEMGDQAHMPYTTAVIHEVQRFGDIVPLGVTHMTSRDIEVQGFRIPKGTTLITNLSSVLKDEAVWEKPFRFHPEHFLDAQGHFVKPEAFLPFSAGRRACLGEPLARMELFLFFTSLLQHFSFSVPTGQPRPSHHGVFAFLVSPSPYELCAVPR
Test: Cytochrome panel assay with activity outcomes
Settings: recombinant CYP, pro-luciferin dealkylation, luminescence, p450-cyp2d6; series mostly up to 57.1 µM
Screen size: about 16,000 compounds; about 2,600 (16%) were called active. Inconclusive results (about 20%) are left out. Calls come from the whole dose curve; as a rule, active = well fitted curve in the direction sought with a large enough effect; inconclusive = small, poorly fitted or top-dose-only effect, or effect the other way; inactive = no such curve, though single readings can be large or run the other way. Not all results are given here.
Outcomes: true (1) = active, false (0) = inactive

molecule	class
COc1cc(/C=N/NC(=O)c2cccs2)ccc1OCc1ccccc1	false (0)
CC(/C=C1\N=C(SCc2ccccc2Cl)SC1=O)=C\c1ccccc1	false (0)
N#C/C(=C\c1ccc(O)c(O)c1)C(=O)NCc1ccccc1	false (0)
COc1ccccc1-c1cc(NCc2ccccc2)ncn1	true (1)
O=C1NC(c2ccc(Br)cc2)Nc2sc3c(c21)CCC3 (configuration not stated)	false (0)
CCCn1c(=O)c2[nH]c(-c3ccc(OCC(=O)NCCN)cc3)nc2n(CCC)c1=O	false (0)
O=c1nc2ccccc2c2n1C[C@H](CN1CCN(c3ccccc3)CC1)N2	false (0)
CCOC(=O)C1CCCN(C(=O)CCn2nc(-c3ccccc3)ccc2=O)C1 (configuration not stated)	false (0)
Cc1c(N(C)C)c(=O)n(-c2ccccc2)n1C	false (0)
Cc1cc(Cl)ccc1Oc1ncnc2oc(-c3ccccc3)cc12	false (0)
CC(=O)NCCc1ccc(O)c(O)c1	false (0)
COc1ccc(N(CC(=O)NN=C2CCCC2)S(=O)(=O)c2ccccc2)cc1	false (0)
CC(C)(Oc1ccc(CCNC(=O)c2ccc(Cl)cc2)cc1)C(=O)O	false (0)
COc1ccccc1NC(=O)CCc1c(C)[nH]c(=O)c(C#N)c1C	false (0)
Cc1ccc(C(=O)NC(=S)Nc2cccc3nsnc23)cc1	false (0)
NC(=O)C1=CN([C@@H]2O[C@@H](COP(=O)(O)OP(=O)(O)OC[C@@H]3O[C@H](n4cnc5c(N)ncnc54)[C@@H](OP(=O)(O)O)[C@@H]3O)[C@H](O)[C@@H]2O)C=CC1	false (0)
C[C@H](NC(=O)/C(C#N)=C/c1ccc(O)c(O)c1)c1ccccc1	false (0)
CC(=O)Nc1ccc(C#Cc2ccc(NC(C)=O)cc2)cc1	false (0)
Oc1cc2c(cc1O)CN(C(=S)NCCc1ccc(Cl)cc1)CCC2	true (1)
COc1ccccc1-c1cc(Nc2ccn[nH]2)ncn1	false (0)
CC(C)(C)C(=O)N1CCc2cc(-c3csc(N)n3)ccc21	false (0)
COc1ccccc1CNc1cc(-c2ccccc2OC)ncn1	true (1)

###

Molecular target: Cytochrome P450 2D6 (Homo sapiens)
Test: Cytochrome panel assay with activity outcomes
Details: recombinant CYP, pro-luciferin dealkylation, luminescence, p450-cyp2d6; series mostly up to 57.1 µM
Among all 16,000 compounds or so, about 2,600 (16%) were called active. About 20% were inconclusive and are not listed. A selection follows.
observation-type: AC50

>>> print(df.to_string())
                                    compound                      assayed_system  observation_type     readout_value
 0  Cc1nc(SCC(=O)NCCc2ccccc2)c2oc3ccccc3c2n1  Cytochrome P450 2D6 (Homo sapiens)              AC50          inactive
 1            CN1CCC(=NNC(=O)CSCc2ccccc2)CC1  Cytochrome P450 2D6 (Homo sapiens)              AC50          inactive
 2        c1ccc2c(c1)oc1c(NCCCn3ccnc3)ncnc12  Cytochrome P450 2D6 (Homo sapiens)              AC50  1.26 µM (active)
 3  CCOC(=O)c1[nH]c(C)c(/C(O)=C2\C(=O)C(=O)N(CCN3CCOCC3)C2c2cccs2)c1C (stereo unspecified)  Cytochrome P450 2D6 (Homo sapiens)              AC50          inactive
 4      C=C(CC)C(=O)c1ccc(OCC(=O)O)c(Cl)c1Cl  Cytochrome P450 2D6 (Homo sapiens)              AC50          inactive
 5  O=S(=O)(N/N=C\c1cccn1-c1ccccc1)c1ccc2ccccc2c1  Cytochrome P450 2D6 (Homo sapiens)              AC50  5.01 µM (active)
 6        N[C@@H](CO)C(=O)NNCc1ccc(O)c(O)c1O  Cytochrome P450 2D6 (Homo sapiens)              AC50          inactive
 7          CCCN1CCC(=NNC(=O)c2ccc(Br)o2)CC1  Cytochrome P450 2D6 (Homo sapiens)              AC50  7.08 µM (active)
 8  COc1ccc(C(=O)Oc2cc(/C=N/NS(=O)(=O)c3ccc(C)cc3)ccc2OC)cc1  Cytochrome P450 2D6 (Homo sapiens)              AC50          inactive
 9  Cc1ccc(S(=O)(=O)N/N=C/c2cccn2-c2ccc(Cl)cc2)cc1  Cytochrome P450 2D6 (Homo sapiens)              AC50          inactive
10  O=C(Oc1ccccc1N1C(=O)C2CCCCC2C1=O)c1ccccc1 (stereo unspecified)  Cytochrome P450 2D6 (Homo sapiens)              AC50          inactive

Source of measurements: PubChem BioAssay AID1851
